- Measurement target: pooled human IgG (human IgG1,2,3 and 4)
Reported endpoint: Enzyme Activity Endpoint Assay: Fc (ng/µL)

1) PRT-299 (protein) MVTSVWTKGVTPPTDFIKGEDVFHAPYKAGQGWYDITKTFNGKDDLLCGAATAGNMLHWWFDQNKEYIEAYLKKHPEKQKIMFGDQELLDVRKAINTKGSQKNSELFNYFRDKAFPNLSARRLGVMPDLVLDMFINGYYLNVTKTQTTDVNRTYQEKDKRGGIFDAVFTRGDQSKLLTSRHDFKEKGLKEISDLIKQELTEGKALGLSHTYANVRIGHVINLWGADFDSDGNLKAIYVTDSDSNASIGMKKYFVGVNSSGKVAISAKEIKEDNIGAQVLGLFTLSTGQDIWNQTN
378
